The measurements presented in this section are drawn from patent US20240043504A1.

Quick reference for MFI among some binders
# subject.of.test: SARS-CoV-2 Spike Protein (S1 Subunit, Fc Tag) (Sino 40591-V02H) (SARS-CoV-2, UniProt P0DTC2 16-685)
# assay.remarks: Luminex, supernatant
outcome.measure: MFI (MFI)

INSERT INTO assay_data (binder, outcome_measure, unit_string, measured) VALUES
  ('mAb10971 (antibody, V domains shown) VH: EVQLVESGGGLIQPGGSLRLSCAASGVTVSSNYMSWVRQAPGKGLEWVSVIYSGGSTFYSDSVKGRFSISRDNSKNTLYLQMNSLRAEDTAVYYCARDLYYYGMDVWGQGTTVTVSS VL: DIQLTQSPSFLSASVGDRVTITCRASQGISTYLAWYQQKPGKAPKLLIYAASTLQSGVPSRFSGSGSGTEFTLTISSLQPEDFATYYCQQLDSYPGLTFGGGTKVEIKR', 'MFI', 'MFI', 17000),
  ('mAb10982 (antibody, V domains shown) VH: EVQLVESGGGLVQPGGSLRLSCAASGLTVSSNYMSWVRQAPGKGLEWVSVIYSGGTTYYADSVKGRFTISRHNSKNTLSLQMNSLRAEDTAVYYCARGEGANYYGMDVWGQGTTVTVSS VL: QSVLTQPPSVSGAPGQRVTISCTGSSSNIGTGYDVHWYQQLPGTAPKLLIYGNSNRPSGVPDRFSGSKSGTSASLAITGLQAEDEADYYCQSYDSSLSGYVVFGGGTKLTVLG', 'MFI', 'MFI', 10800),
  ('mAb10957 (antibody, V domains shown) VH: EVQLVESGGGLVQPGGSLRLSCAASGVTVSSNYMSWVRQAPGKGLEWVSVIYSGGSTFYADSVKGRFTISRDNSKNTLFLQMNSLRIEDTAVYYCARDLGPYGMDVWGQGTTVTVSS VL: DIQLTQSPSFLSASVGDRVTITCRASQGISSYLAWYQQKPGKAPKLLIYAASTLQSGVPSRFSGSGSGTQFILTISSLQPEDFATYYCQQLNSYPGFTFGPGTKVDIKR', 'MFI', 'MFI', 8450);
